In this section we review reported MIC values for a set of compounds.
Tested on: Acinetobacter pittii
EXPERIMENT SUMMARY: Antibacterial activity against Pulsotype J Acinetobacter genomosp. 3 isolate 15 containing IMP-1, OXA-58, ADC-18, ISAba1, ISAba3, IS1008, intI1 genetic elements by broth micro dilution
Format: functional

Exercise: Answer with the recorded MIC of `CC(C)(O/N=C(\C(=O)N[C@@H]1C(=O)N2C(C(=O)[O-])=C(C[n+]3ccccc3)CS[C@H]12)c1csc(N)n1)C(=O)O` only.
Solution: > 32 µg/mL

Exercise: Answer with the recorded MIC of C[C@@H](O)[C@H]1C(=O)N2C(C(=O)O)=C(SCCNC=N)C[C@H]12 [IMIPENEM ANHYDROUS] only.
Solution: 16 µg/mL

Exercise: Answer with the recorded MIC of `CO/N=C(\C(=O)N[C@@H]1C(=O)N2C(C(=O)O)=C(CSc3nc(=O)c(O)nn3C)CS[C@H]12)c1csc(N)n1` only.
Solution: > 32 µg/mL

Exercise: Answer with the recorded MIC of CO/N=C(\C(=O)N[C@@H]1C(=O)N2C(C(=O)[O-])=C(C[N+]3(C)CCCC3)CS[C@H]12)c1csc(N)n1 [CEFEPIME] only.
Solution: > 16 µg/mL

Exercise: Answer with the recorded MIC of `C[C@@H](O)[C@H]1C(=O)N2C(C(=O)O)=C(S[C@@H]3CN[C@H](C(=O)N(C)C)C3)[C@H](C)[C@H]12` only.
Solution: 32 µg/mL

Exercise: Answer with the recorded MIC of `CCN1CCN(C(=O)N[C@@H](C(=O)N[C@@H]2C(=O)N3[C@@H]2SC(C)(C)[C@@H]3C(=O)O)c2ccccc2)C(=O)C1=O` only.
Solution: > 64 µg/mL

Exercise: Answer with the recorded MIC of `C[C@H]1[C@H](NC(=O)/C(=N\OC(C)(C)C(=O)O)c2csc(N)n2)C(=O)N1S(=O)(=O)O` only.
Solution: > 16 µg/mL

----------
System: Acinetobacter pittii
EXPERIMENT SUMMARY: Antibacterial activity against Pulsotype F Acinetobacter genomosp. 3 isolate 4 containing IMP-1, OXA-58, ADC-18, ISAba1, ISAba3, IS18, IS1008, intI1 genetic elements by broth micro dilution
Format: functional
MEASURE NAME: MIC

Recorded results for 3 compounds are shown here.
CC(C)(O/N=C(\C(=O)N[C@@H]1C(=O)N2C(C(=O)[O-])=C(C[n+]3ccccc3)CS[C@H]12)c1csc(N)n1)C(=O)O = > 32 mg/L
CCN1CCN(C(=O)N[C@@H](C(=O)N[C@@H]2C(=O)N3[C@@H]2SC(C)(C)[C@@H]3C(=O)O)c2ccccc2)C(=O)C1=O = > 64 mg/L
CO/N=C(\C(=O)N[C@@H]1C(=O)N2C(C(=O)O)=C(CSc3nc(=O)c(O)nn3C)CS[C@H]12)c1csc(N)n1 = > 32 mg/L

Exercise: Answer with the recorded MIC of `C[C@H]1[C@H](NC(=O)/C(=N\OC(C)(C)C(=O)O)c2csc(N)n2)C(=O)N1S(=O)(=O)O` only.
Solution: > 16 mg/L

Exercise: Answer with the recorded MIC of CO/N=C(\C(=O)N[C@@H]1C(=O)N2C(C(=O)[O-])=C(C[N+]3(C)CCCC3)CS[C@H]12)c1csc(N)n1 [CEFEPIME] only.
Solution: > 16 mg/L

Exercise: Answer with the recorded MIC of `C[C@@H](O)[C@H]1C(=O)N2C(C(=O)O)=C(S[C@@H]3CN[C@H](C(=O)N(C)C)C3)[C@H](C)[C@H]12` only.
Solution: 64 mg/L

Exercise: Answer with the recorded MIC of C[C@@H](O)[C@H]1C(=O)N2C(C(=O)O)=C(SCCNC=N)C[C@H]12 [IMIPENEM ANHYDROUS] only.
Solution: 64 mg/L

----------
Tested on: Acinetobacter pittii
EXPERIMENT SUMMARY: Antibacterial activity against Pulsotype L Acinetobacter genomosp. 3 isolate 2 containing IMP-8, OXA-58, ADC-43, ISAba1, ISAba3, IS1008, intI1 genetic elements by broth micro dilution
Format: functional
In this section we review reported MIC values for a set of compounds.

Recorded results for 5 compounds are shown here.
CCN1CCN(C(=O)N[C@@H](C(=O)N[C@@H]2C(=O)N3[C@@H]2SC(C)(C)[C@@H]3C(=O)O)c2ccccc2)C(=O)C1=O [PIPERACILLIN] = > 64 µg/mL
C[C@@H](O)[C@H]1C(=O)N2C(C(=O)O)=C(SCCNC=N)C[C@H]12 [IMIPENEM ANHYDROUS] = 32 µg/mL
CO/N=C(\C(=O)N[C@@H]1C(=O)N2C(C(=O)[O-])=C(C[N+]3(C)CCCC3)CS[C@H]12)c1csc(N)n1 [CEFEPIME] = > 16 µg/mL
C[C@H]1[C@H](NC(=O)/C(=N\OC(C)(C)C(=O)O)c2csc(N)n2)C(=O)N1S(=O)(=O)O [AZTREONAM] = > 16 µg/mL
CO/N=C(\C(=O)N[C@@H]1C(=O)N2C(C(=O)O)=C(CSc3nc(=O)c(O)nn3C)CS[C@H]12)c1csc(N)n1 [CEFTRIAXONE] = > 32 µg/mL

Exercise: Answer with the recorded MIC of C[C@@H](O)[C@H]1C(=O)N2C(C(=O)O)=C(S[C@@H]3CN[C@H](C(=O)N(C)C)C3)[C@H](C)[C@H]12 [MEROPENEM] only.
Solution: 16 µg/mL

Exercise: Answer with the recorded MIC of CC(C)(O/N=C(\C(=O)N[C@@H]1C(=O)N2C(C(=O)[O-])=C(C[n+]3ccccc3)CS[C@H]12)c1csc(N)n1)C(=O)O [CEFTAZIDIME] only.
Solution: > 32 µg/mL

----------
Tested on: Acinetobacter pittii
EXPERIMENT SUMMARY: Antibacterial activity against Pulsotype L Acinetobacter genomosp. 3 isolate 7 containing IMP-1, OXA-58, ADC-18, ISAba1, ISAba3, IS1008, intI1 genetic elements by broth micro dilution
Format: functional
In this section we review reported MIC values for a set of molecules.

Recorded results for 2 molecules are shown here.
CO/N=C(\C(=O)N[C@@H]1C(=O)N2C(C(=O)[O-])=C(C[N+]3(C)CCCC3)CS[C@H]12)c1csc(N)n1 [CEFEPIME] = > 16 µg/mL
CC(C)(O/N=C(\C(=O)N[C@@H]1C(=O)N2C(C(=O)[O-])=C(C[n+]3ccccc3)CS[C@H]12)c1csc(N)n1)C(=O)O [CEFTAZIDIME] = > 32 µg/mL

--- query ---
Exercise: Answer with the recorded MIC of CO/N=C(\C(=O)N[C@@H]1C(=O)N2C(C(=O)O)=C(CSc3nc(=O)c(O)nn3C)CS[C@H]12)c1csc(N)n1 [CEFTRIAXONE] only.
Solution: > 32 µg/mL

----------
System: Acinetobacter pittii
EXPERIMENT SUMMARY: Antibacterial activity against Pulsotype L Acinetobacter genomosp. 3 isolate 7 containing IMP-1, OXA-58, ADC-18, ISAba1, ISAba3, IS1008, intI1 genetic elements by broth micro dilution
Assay type: functional
MEASURE NAME: MIC (µg/mL)
Report as a plain number; the unit µg/mL is understood.

C[C@@H](O)[C@H]1C(=O)N2C(C(=O)O)=C(S[C@@H]3CN[C@H](C(=O)N(C)C)C3)[C@H](C)[C@H]12 = 16

Exercise: Answer with the recorded MIC of C[C@@H](O)[C@H]1C(=O)N2C(C(=O)O)=C(SCCNC=N)C[C@H]12 [IMIPENEM ANHYDROUS] only.
Solution: 32
